- measured.on: RPS6KB2 (human) (UniProt Q9UBS0)
- Sequence (Q9UBS0 whole entry, looked up): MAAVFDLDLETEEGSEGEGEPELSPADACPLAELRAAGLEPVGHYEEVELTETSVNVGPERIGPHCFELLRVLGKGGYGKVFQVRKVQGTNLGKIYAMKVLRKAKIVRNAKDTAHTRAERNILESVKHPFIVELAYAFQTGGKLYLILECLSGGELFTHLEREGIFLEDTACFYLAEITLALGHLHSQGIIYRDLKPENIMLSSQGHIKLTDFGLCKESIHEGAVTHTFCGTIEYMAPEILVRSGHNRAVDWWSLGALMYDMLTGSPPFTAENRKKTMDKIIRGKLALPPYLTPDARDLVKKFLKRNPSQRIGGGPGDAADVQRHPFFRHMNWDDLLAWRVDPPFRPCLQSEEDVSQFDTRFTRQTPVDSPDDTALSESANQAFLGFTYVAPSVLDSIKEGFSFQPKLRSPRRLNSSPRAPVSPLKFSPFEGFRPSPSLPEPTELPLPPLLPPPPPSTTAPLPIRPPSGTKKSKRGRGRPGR
- assay: radiometric filter-binding kinase assay, Kinase HotSpot
- reported.conditions: compound 0.5 µM; ATP 10 µM
measured.property: residual activity (%)
Give the value, in units of %, as a plain number.

Notebook: pull reported residual activity for RPS6KB2 (human) (UniProt Q9UBS0), entry "O=c1cc(N2CCNCC2)oc2c(-c3ccccc3)cccc12"
91

Notebook: pull reported residual activity for RPS6KB2 (human) (UniProt Q9UBS0), entry "CCN1/C(=C/C(C)=O)Sc2ccc(OC)cc21"
107

Notebook: pull reported residual activity for RPS6KB2 (human) (UniProt Q9UBS0), entry "COc1ccc(-c2cnc3c(-c4ccsc4)cnn3c2)cc1"
100

Notebook: pull reported residual activity for RPS6KB2 (human) (UniProt Q9UBS0), entry "O=C(Nc1ccc(Cl)cc1)c1ccccc1NCc1ccncc1"
105

Notebook: pull reported residual activity for RPS6KB2 (human) (UniProt Q9UBS0), entry "C#Cc1cccc(Nc2ncnc3cc(OCCOC)c(OCCOC)cc23)c1"
103

###

- measured.on: INSRR (human) (UniProt P14616)
- Sequence (P14616 whole entry, looked up): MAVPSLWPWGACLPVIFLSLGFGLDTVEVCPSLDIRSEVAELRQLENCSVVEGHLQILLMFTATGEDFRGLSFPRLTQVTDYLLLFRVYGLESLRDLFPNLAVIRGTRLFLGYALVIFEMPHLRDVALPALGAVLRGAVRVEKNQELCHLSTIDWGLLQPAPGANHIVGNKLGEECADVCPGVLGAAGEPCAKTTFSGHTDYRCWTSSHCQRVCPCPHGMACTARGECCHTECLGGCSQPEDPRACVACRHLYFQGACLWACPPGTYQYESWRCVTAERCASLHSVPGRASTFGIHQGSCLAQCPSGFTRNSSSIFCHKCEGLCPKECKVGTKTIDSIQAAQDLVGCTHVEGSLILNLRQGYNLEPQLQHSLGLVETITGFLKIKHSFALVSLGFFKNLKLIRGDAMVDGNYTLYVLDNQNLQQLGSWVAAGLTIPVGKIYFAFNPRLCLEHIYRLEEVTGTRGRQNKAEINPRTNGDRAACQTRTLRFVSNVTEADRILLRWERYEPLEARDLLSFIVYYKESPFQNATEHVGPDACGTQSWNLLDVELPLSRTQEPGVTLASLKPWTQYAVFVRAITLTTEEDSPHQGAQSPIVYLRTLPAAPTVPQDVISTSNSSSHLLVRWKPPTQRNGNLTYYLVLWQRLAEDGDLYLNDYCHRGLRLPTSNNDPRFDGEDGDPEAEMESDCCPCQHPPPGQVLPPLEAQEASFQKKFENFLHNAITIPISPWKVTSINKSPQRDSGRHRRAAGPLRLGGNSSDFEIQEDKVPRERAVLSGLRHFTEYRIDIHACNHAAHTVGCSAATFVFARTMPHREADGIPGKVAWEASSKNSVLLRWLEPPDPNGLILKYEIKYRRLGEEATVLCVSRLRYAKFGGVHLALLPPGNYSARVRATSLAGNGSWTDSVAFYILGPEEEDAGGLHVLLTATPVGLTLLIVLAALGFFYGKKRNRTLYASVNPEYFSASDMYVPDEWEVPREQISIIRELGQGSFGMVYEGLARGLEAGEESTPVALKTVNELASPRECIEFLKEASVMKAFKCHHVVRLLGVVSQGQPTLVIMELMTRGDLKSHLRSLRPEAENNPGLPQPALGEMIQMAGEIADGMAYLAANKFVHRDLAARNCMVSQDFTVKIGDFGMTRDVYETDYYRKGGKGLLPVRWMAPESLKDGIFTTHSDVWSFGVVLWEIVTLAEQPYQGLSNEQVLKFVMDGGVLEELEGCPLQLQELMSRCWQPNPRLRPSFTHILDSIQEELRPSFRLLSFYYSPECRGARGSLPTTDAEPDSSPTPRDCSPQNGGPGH
- assay: radiometric filter-binding kinase assay, Kinase HotSpot
- reported.conditions: compound 0.5 µM; ATP 10 µM
Label rule, in plain words: residual activity of 90% and up is Y, under 90% is N.

Evaluate "Clc1ccc(Nc2nnc(Cc3ccncc3)c3ccccc23)cc1" : residual activity at minimum 90%?
Y

Evaluate "C#Cc1cccc(Nc2ncnc3cc(OCCOC)c(OCCOC)cc23)c1" : residual activity at minimum 90%?
Y

Evaluate "O=C1Cc2c([nH]c3ccc([N+](=O)[O-])cc23)-c2ccccc2N1" : residual activity at minimum 90%?
Y

Evaluate "CC(C)n1cnc2c(Nc3cccc(Cl)c3)nc(NCCO)nc21" : residual activity at minimum 90%?
N

Evaluate "Nc1n[nH]c2nnc(-c3c(-c4ccccc4)nn4ccccc34)cc12" : residual activity at minimum 90%?
Y

###

Provide the reported residual activity of each item.
- measured.on: DYRK3 (human) (UniProt O43781)
- Sequence (O43781 whole entry, looked up): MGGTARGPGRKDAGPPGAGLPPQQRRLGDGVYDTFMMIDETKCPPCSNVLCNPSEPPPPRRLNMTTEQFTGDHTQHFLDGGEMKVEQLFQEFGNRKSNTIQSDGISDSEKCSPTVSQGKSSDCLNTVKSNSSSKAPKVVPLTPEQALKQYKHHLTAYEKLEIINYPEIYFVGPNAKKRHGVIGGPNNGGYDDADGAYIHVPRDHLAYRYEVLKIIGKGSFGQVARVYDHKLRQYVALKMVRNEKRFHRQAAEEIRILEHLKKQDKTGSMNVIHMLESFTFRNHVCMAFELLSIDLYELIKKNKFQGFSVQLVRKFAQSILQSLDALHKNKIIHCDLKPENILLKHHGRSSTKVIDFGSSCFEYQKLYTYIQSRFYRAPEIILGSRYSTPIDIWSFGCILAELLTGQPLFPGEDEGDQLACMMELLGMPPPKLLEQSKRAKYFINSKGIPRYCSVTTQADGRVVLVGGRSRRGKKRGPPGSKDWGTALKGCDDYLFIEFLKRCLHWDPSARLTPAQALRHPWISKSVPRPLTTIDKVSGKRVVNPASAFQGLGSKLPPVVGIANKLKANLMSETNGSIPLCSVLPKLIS
- assay: radiometric filter-binding kinase assay, Kinase HotSpot
- reported.conditions: compound 0.5 µM; ATP 10 µM
Please answer using a numeric value trailed by its unit.

Data request, read-out residual activity, for "CC(C)(C)c1nc2c3ccc(F)cc3c3c(=O)[nH]ccc3c2[nH]1"
105%

Data request, read-out residual activity, for "O=C1Nc2cc(Br)ccc2/C1=C1/Nc2ccccc2/C1=N\O"
104%

Data request, read-out residual activity, for O=C(NC(NC(=S)Nc1ccc(F)c([N+](=O)[O-])c1)C(Cl)(Cl)Cl)C(c1ccccc1)c1ccccc1 (stereo unspecified)
100%

Data request, read-out residual activity, for "NC(=O)c1ccc(N(C(N)=O)c2c(F)cccc2F)nc1-c1ccc(F)cc1F"
105%

Data request, read-out residual activity, for "CC(C)n1cnc2c(Nc3cccc(Cl)c3)nc(NCCO)nc21"
97.2%

Data request, read-out residual activity, for "CCCNC(=O)Nc1ccc(Oc2ncnc3cc(OC)c(OC)cc23)cc1Cl"
99.7%

Data request, read-out residual activity, for "COc1ccc(-c2cnc3c(-c4ccsc4)cnn3c2)cc1"
89.9%

Data request, read-out residual activity, for "Cc1ccc(NC(=O)c2ccc(CN3CCN(C)CC3)cc2)cc1Nc1nc(-c2cccnc2)cs1"
108%

Data request, read-out residual activity, for "O=c1cc(N2CCNCC2)oc2c(-c3ccccc3)cccc12"
97.8%

Data request, read-out residual activity, for "O=C1Cc2c([nH]c3ccc([N+](=O)[O-])cc23)-c2ccccc2N1"
99.3%

Data request, read-out residual activity, for "COc1cc2ncnc(Nc3ccc(F)c(Cl)c3)c2cc1OCCCN1CCOCC1"
85%

Data request, read-out residual activity, for "O=c1cc(-c2cccc3c2Sc2ccccc2S3)oc(N2CCOCC2)c1"
84.3%

Data request, read-out residual activity, for CSc1nc(-c2ccc(F)cc2)c(-c2ccnc(NC(C)c3ccccc3)c2)[nH]1 (stereo unspecified)
94.2%

Data request, read-out residual activity, for "O=C(Nc1ccc(Cl)cc1)c1ccccc1NCc1ccncc1"
104%

Data request, read-out residual activity, for "CCN1/C(=C/C(C)=O)Sc2ccc(OC)cc21"
50.4%

Data request, read-out residual activity, for CS(=O)c1ccc(-c2nc(-c3ccc(F)cc3)c(-c3ccncc3)[nH]2)cc1 (stereo unspecified)
99%

Data request, read-out residual activity, for "Nc1n[nH]c2nnc(-c3c(-c4ccccc4)nn4ccccc34)cc12"
99.8%

Data request, read-out residual activity, for "Nc1nc(Nc2ccc(S(N)(=O)=O)cc2)nn1C(=O)c1c(F)cccc1F"
101%

Data request, read-out residual activity, for "C#Cc1cccc(Nc2ncnc3cc(OCCOC)c(OCCOC)cc23)c1"
83.5%

Data request, read-out residual activity, for "Cc1cc2ncc(-c3ccccc3)nc2cc1C"
89.2%

Data request, read-out residual activity, for "Clc1ccc(Nc2nnc(Cc3ccncc3)c3ccccc23)cc1"
95.9%

Data request, read-out residual activity, for "O=C1Nc2ccccc2/C1=C\c1c(Cl)[nH]c2ccccc12"
101%

Data request, read-out residual activity, for "Nc1nc(Nc2ccc(S(N)(=O)=O)cc2)nn1C(=S)Nc1c(F)cccc1F"
98.5%

Data request, read-out residual activity, for "COc1cc2nccc(Oc3ccc(NC(=S)NC(=O)c4ccccc4C)cc3)c2cc1OC"
90.8%

Data request, read-out residual activity, for "Oc1ccc(-c2nc(-c3ccc(F)cc3)c(-c3ccncc3)[nH]2)cc1"
101%

Data request, read-out residual activity, for "CC(C)[C@H](CO)Nc1nc(Nc2cccc(Cl)c2)c2ncn(C(C)C)c2n1"
105%

###

- measured.on: IRAK1 (human)
- assay: radiometric filter-binding kinase assay, Kinase HotSpot
- reported.conditions: compound 0.5 µM; ATP 10 µM
measured.property: residual activity (%)
Give the value, in units of %, as a plain number.

Data request, read-out residual activity, for "Nc1nc(Nc2ccc(S(N)(=O)=O)cc2)nn1C(=S)Nc1c(F)cccc1F"
16.9

Data request, read-out residual activity, for "CC(C)(C)c1nc2c3ccc(F)cc3c3c(=O)[nH]ccc3c2[nH]1"
76.3

Data request, read-out residual activity, for CS(=O)c1ccc(-c2nc(-c3ccc(F)cc3)c(-c3ccncc3)[nH]2)cc1 (stereo not given)
129

Data request, read-out residual activity, for "CCCNC(=O)Nc1ccc(Oc2ncnc3cc(OC)c(OC)cc23)cc1Cl"
106

Data request, read-out residual activity, for "Clc1ccc(Nc2nnc(Cc3ccncc3)c3ccccc23)cc1"
94.1

###

Provide the reported residual activity of each item.
- measured.on: INSR (human) (UniProt P06213)
- Sequence (P06213 whole entry, looked up): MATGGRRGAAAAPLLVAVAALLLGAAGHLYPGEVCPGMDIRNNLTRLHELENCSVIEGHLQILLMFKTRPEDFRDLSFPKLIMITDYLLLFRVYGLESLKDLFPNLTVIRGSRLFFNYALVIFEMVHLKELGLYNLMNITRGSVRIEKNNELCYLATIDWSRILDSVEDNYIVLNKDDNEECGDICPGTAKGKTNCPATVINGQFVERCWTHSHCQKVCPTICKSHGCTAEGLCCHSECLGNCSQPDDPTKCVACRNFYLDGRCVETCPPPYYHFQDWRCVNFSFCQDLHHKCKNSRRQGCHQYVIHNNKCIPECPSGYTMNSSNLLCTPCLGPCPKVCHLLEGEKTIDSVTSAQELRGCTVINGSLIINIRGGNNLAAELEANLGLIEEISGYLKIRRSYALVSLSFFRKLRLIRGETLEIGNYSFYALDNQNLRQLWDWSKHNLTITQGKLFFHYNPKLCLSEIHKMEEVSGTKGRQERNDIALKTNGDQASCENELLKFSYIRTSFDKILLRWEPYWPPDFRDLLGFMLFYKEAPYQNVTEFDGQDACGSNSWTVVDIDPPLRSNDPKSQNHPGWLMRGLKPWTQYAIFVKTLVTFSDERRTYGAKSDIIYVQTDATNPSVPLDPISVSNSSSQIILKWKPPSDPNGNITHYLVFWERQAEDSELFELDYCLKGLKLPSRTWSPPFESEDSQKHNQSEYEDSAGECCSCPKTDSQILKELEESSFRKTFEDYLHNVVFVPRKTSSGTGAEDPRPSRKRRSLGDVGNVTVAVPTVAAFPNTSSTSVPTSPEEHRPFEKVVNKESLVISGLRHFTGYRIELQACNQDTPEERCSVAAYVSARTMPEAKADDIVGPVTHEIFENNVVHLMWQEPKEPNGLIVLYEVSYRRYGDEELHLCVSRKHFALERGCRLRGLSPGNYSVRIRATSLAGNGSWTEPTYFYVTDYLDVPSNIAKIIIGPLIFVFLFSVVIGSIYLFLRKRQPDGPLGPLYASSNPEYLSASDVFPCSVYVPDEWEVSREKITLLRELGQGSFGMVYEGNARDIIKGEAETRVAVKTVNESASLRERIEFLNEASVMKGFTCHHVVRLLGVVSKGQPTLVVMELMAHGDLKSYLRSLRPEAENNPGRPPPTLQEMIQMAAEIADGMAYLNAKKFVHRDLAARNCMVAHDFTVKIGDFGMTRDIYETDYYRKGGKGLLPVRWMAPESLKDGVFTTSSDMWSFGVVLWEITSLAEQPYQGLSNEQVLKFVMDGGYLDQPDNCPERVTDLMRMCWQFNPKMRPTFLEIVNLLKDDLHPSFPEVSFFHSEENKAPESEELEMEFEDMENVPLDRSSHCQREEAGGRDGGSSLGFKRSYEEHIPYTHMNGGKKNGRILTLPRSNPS
- assay: radiometric filter-binding kinase assay, Kinase HotSpot
- reported.conditions: compound 0.5 µM; ATP 10 µM
Give the value, in units of %, as a plain number.

Notebook: pull reported residual activity for INSR (human) (UniProt P06213), entry "O=C1Nc2ccccc2/C1=C\c1c(Cl)[nH]c2ccccc12"
91.2

Notebook: pull reported residual activity for INSR (human) (UniProt P06213), entry "CC(C)[C@H](CO)Nc1nc(Nc2cccc(Cl)c2)c2ncn(C(C)C)c2n1"
83

Notebook: pull reported residual activity for INSR (human) (UniProt P06213), entry "C#Cc1cccc(Nc2ncnc3cc(OCCOC)c(OCCOC)cc23)c1"
102

Notebook: pull reported residual activity for INSR (human) (UniProt P06213), entry O=C(NC(NC(=S)Nc1ccc(F)c([N+](=O)[O-])c1)C(Cl)(Cl)Cl)C(c1ccccc1)c1ccccc1 (stereo not given)
100

Notebook: pull reported residual activity for INSR (human) (UniProt P06213), entry "Nc1n[nH]c2nnc(-c3c(-c4ccccc4)nn4ccccc34)cc12"
78.3

Notebook: pull reported residual activity for INSR (human) (UniProt P06213), entry "CC(C)n1cnc2c(Nc3cccc(Cl)c3)nc(NCCO)nc21"
97.3

Notebook: pull reported residual activity for INSR (human) (UniProt P06213), entry "COc1ccc(-c2cnc3c(-c4ccsc4)cnn3c2)cc1"
92.5

Notebook: pull reported residual activity for INSR (human) (UniProt P06213), entry "O=C(Nc1ccc(Cl)cc1)c1ccccc1NCc1ccncc1"
88

Notebook: pull reported residual activity for INSR (human) (UniProt P06213), entry CS(=O)c1ccc(-c2nc(-c3ccc(F)cc3)c(-c3ccncc3)[nH]2)cc1 (stereo not given)
88.9

Notebook: pull reported residual activity for INSR (human) (UniProt P06213), entry "NC(=O)c1ccc(N(C(N)=O)c2c(F)cccc2F)nc1-c1ccc(F)cc1F"
104

###

- measured.on: PRKCA (human) (UniProt P17252)
- assay: radiometric filter-binding kinase assay, Kinase HotSpot
- reported.conditions: compound 0.5 µM; ATP 10 µM
Provide the reported residual activity of each item.
Give the value, in units of %, as a plain number.

Data request, read-out residual activity, for CSc1nc(-c2ccc(F)cc2)c(-c2ccnc(NC(C)c3ccccc3)c2)[nH]1 (stereo unspecified)
108

Data request, read-out residual activity, for "Cc1cc2ncc(-c3ccccc3)nc2cc1C"
90.5

Data request, read-out residual activity, for "Clc1ccc(Nc2nnc(Cc3ccncc3)c3ccccc23)cc1"
75.8

Data request, read-out residual activity, for "CCN1/C(=C/C(C)=O)Sc2ccc(OC)cc21"
68.7

Data request, read-out residual activity, for "COc1cc2ncnc(Nc3ccc(F)c(Cl)c3)c2cc1OCCCN1CCOCC1"
93.6

Data request, read-out residual activity, for "Cc1ccc(NC(=O)c2ccc(CN3CCN(C)CC3)cc2)cc1Nc1nc(-c2cccnc2)cs1"
110
